TARGET_OR_SYSTEM: High affinity choline transporter 1 (Homo sapiens)
PROCEDURE_TEXT: inhibitors of human choline transporter CHT (AID 488975)
SETUP_CONDITIONS: CHT-expressing cells, membrane potential dye, choline response, at 10 µM
Out of some 310,000 compounds screened, about 2,600 (0.84%) were called active.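 The calls were made as follows: active = B-score over 3 SD under the library average, and starting fluorescence ratio not unusually high; inactive = the rest.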 This excerpt belongs to a sample that is enriched for actives.
Classes used: active, inactive

COMPOUND: CC(C)Oc1ccc(CCC(=O)NNC(=S)NCc2ccccc2)cc1
CATEGORY: inactive
//
COMPOUND: CC(=N\NC(=O)c1cc(Br)ccc1O)/C(=N/O)C(=O)Nc1ccccc1
CATEGORY: inactive
//
COMPOUND: OCC[C@H]1C[C@@H](O)[C@H](O)[C@@]2(OCCc3ccccc32)O1
CATEGORY: inactive
//
COMPOUND: COc1ccc(C(=O)NNC(=S)NC(=O)c2ccccc2)cc1
CATEGORY: active
//
COMPOUND: CN(CCC#N)c1ncnc2scc(-c3ccccc3)c12
CATEGORY: active
//
COMPOUND: COc1ccc(C(=O)NC(=S)NNC(=O)CCc2ccccc2)cc1
CATEGORY: active
//
COMPOUND: COc1ccc(Cl)cc1NC(=O)CN(C)C(=O)CNC(=O)C12CC3CC(CC(C3)C1)C2
CATEGORY: inactive
//
COMPOUND: C/C(=N/NC(=O)c1cc(Cl)ccc1O)C12CC3CC(CC(C3)C1)C2
CATEGORY: active
//
COMPOUND: O=C(NCC(c1cccs1)N1CCOCC1)c1cc(Cl)ccc1[N+](=O)[O-] (stereo not given)
CATEGORY: inactive
//
COMPOUND: COc1ccc(C(=O)NC(=S)NNC(=O)c2c(-c3ccccc3)noc2C)cc1
CATEGORY: inactive
